Target: Cyclin-dependent kinase 5/CDK5 activator 1 (Homo sapiens)
Sequence (Q00535 whole entry): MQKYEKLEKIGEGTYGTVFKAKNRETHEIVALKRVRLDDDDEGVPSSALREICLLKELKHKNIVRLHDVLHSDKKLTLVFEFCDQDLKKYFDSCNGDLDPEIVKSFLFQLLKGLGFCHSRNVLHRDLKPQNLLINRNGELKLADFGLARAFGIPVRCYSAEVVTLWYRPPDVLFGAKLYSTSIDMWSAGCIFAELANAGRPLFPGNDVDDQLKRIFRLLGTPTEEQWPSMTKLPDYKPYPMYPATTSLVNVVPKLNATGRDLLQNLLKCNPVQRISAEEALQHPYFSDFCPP
Sequence (Q15078 whole entry, further chain): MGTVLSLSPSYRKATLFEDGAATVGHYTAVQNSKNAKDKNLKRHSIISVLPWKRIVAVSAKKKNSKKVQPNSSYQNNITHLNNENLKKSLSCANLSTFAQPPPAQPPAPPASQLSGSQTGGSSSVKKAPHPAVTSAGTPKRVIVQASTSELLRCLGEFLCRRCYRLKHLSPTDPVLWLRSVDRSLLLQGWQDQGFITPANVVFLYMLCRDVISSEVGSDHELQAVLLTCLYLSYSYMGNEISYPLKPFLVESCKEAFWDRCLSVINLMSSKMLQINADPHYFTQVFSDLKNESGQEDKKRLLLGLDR
observation.type: IC50 (µM)

{"smiles.representation": "CC(=O)NNC(=O)CSc1nnc(Cc2c(NC(=O)CCl)sc3c2CCCC3)n1NC(C)=O", "measurement": 0.454}
{"smiles.representation": "O=C(CCl)Nc1sc2c(c1Cc1n[nH]c(=S)n1NC(=O)c1ccccc1)CCCC2", "measurement": 0.751}
{"smiles.representation": "O=C(O)CCNc1sc2c(c1Cc1nnc(SCSc3nnc(Cc4c(NCCC(=O)O)sc5c4CCCC5)n3NC(=O)c3ccccc3)n1NC(=O)c1ccccc1)CCCC2", "measurement": 0.577}

====

Biological target: Cyclin-dependent kinase 5/CDK5 activator 1 (Homo sapiens)
pIC50: −log10 of the molar value.
observation.type: pIC50

{"smiles.representation": "CC(=O)NNC(=O)CSc1nnc(Cc2c(NC(=O)c3ccccc3)sc3c2CCCC3)n1NC(=O)c1ccc(Cl)cc1", "pIC50": 6.50}

[a] O=C(CCl)Nc1sc2c(c1Cc1nnc(SCSc3nnc(Cc4c(NC(=O)CCl)sc5c4CCCC5)n3NC(=O)c3ccc(Cl)cc3)n1NC(=O)c1ccc(Cl)cc1)CCCC2
[b] CC(=O)Nn1c(Cc2c(NC(=O)c3ccccc3)sc3c2CCCC3)nnc1SCC(=O)NN
[c] O=C(CSc1nnc(Cc2c(NC(=O)CCl)sc3c2CCCC3)n1NC(=O)c1ccc(Cl)cc1)NNC(=O)c1ccccc1
[d] CC(=O)Nc1sc2c(c1Cc1nnc(SCC(=O)NN)n1NC(=O)c1ccc(Cl)cc1)CCCC2
*Q* Hey, quick one: sort these by pIC50, largest value first please. Reply with the item labels sorted in the order that was asked for.
*A* d, b, a, c

[1] O=C(CSc1nnc(Cc2c(NC(=O)c3ccccc3)sc3c2CCCC3)n1NC(=O)c1ccc(Cl)cc1)N/N=C/c1ccccc1
[2] COC(=O)CSc1nnc(Cc2c(NC(C)=O)sc3c2CCCC3)n1NC(=O)c1ccccc1
[3] CC(=O)Nn1c(Cc2c(NC(=O)CCl)sc3c2CCCC3)nnc1SCC(=O)NN
[4] CC(=O)Nc1sc2c(c1Cc1nnc(SCSc3nnc(Cc4c(NC(C)=O)sc5c4CCCC5)n3NC(=O)c3ccc(Cl)cc3)n1NC(=O)c1ccc(Cl)cc1)CCCC2
*Q* Hey, quick one: sort these by pIC50, largest value first please. Reply with the item labels sorted in the order that was asked for.
*A* 3, 1, 4, 2

[a] CC(=O)Nc1sc2c(c1Cc1n[nH]c(=S)n1NC(=O)c1ccc(Cl)cc1)CCCC2
[b] O=C(Cc1c(NC(=O)CCl)sc2c1CCCC2)NNC(=S)[S-].[K+]
*Q* Please indicate which item has the smaller measured pIC50: a versus b Your choice should be expressed through its label.
*A* a
(a: 6.34, b: 6.61)
